Target: GRASP, Q7Z6J2
Sequence (Q7Z6J2 96-193): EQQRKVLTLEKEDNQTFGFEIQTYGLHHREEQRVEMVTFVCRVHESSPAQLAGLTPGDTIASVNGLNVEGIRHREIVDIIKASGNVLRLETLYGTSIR
Experiment: holdup assay
Set-up: key: below the threshold = too weak to quantify, mostly under pKd 3.1 to 4
Conditions: plain residues with an end cap or a label only (N-terminal biotin on a linker: ado-ado)
METRIC: pKd
Provide a numeric answer; units are not to be included.

Prompt line: Can you look up the measured pKd of SRSVVESDEL [MYPN, Q86TC9] for me?
Response line: 4.14

Prompt line: Can you look up the measured pKd of ELSATVTTDC [TRIP6, Q15654] for me?
Response line: 3.54

Prompt line: Can you look up the measured pKd of NTLNRKTTPV [CACNG8, Q8WXS5] for me?
Response line: 4.22

Prompt line: Can you look up the measured pKd of AAVENKVTDL [PLXNB1, O43157] for me?
Response line: 3.93
